experimentalTarget: recombinant human Cathepsin K (Homo sapiens (Human), UniProt P43235)
Sequence (P43235 115-329): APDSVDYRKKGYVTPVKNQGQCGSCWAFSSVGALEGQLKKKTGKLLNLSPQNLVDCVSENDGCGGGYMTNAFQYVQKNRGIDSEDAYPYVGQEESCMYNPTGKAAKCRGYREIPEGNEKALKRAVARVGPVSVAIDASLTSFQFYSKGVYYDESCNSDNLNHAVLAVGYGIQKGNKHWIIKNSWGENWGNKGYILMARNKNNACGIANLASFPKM
procedureDetails: Inhibition of Human Cathepsin K
conditions: substrate Z-Gly-Pro-Arg-AMC, 60 min room temperature
Catalogue of pIC50 readings, one per entry.
By convention, pIC50 is the negative base-10 log of a molar concentration.

Some compounds with recorded pIC50:
compound	pIC50
N#C[C@H](Cc1ccc(-c2csc(C(N)=O)c2)cc1F)NC(=O)C12CCC(CC1)CN2 [Example 31]	6.10
COCCN1C(=O)Cc2ccc(-c3ccc(C[C@@H](C#N)NC(=O)C45CCC(CC4)CN5)c(F)c3)cc21 [Example 26]	5.96

Switching to the query record.
Asked: # pIC50 lookup, item CS(=O)(=O)c1ccc(-c2ccc(C[C@@H](C#N)NC(=O)C34CCC(CC3)CN4)c(F)c2)cc1 [Example 21]
Given back: 6.10

src = patent US8889708B2
